# measured-on: Survivin H80A mutant (human, UniProt O15392 1-142, H80A)
# Sequence (O15392 whole entry H80A): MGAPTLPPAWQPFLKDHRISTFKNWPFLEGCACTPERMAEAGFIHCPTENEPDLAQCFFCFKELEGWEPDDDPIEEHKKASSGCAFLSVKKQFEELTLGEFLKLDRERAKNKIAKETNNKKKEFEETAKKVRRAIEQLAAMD
# procedure-text: ITC
Where no end group is shown, it is not given here. [ ]: non-standard residue; d: D form. pT = C[C@@H](OP(=O)(O)O)[C@H](N)C(=O)O
reported-endpoint: Kd

The recorded Kd for entry AR[pT]KQTARKSTGGKA (peptide, UniProt P68431 2-16, looked up) [H3(1–15)T3ph peptide] equals > 200 µM
